Biological target: JAK3 (Homo sapiens)
Construct: All enzymes only contain the catalytic domain; His (N)
Sequence (P52333 822-1111 limits assumed): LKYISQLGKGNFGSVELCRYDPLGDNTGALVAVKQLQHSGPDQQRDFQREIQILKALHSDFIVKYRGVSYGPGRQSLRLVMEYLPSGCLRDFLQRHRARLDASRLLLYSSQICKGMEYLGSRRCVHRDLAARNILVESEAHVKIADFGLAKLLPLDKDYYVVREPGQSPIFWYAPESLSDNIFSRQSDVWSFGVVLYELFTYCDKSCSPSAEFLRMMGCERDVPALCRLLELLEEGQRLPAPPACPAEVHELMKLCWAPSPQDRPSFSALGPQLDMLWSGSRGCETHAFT
Test: In vitro enzyme assay (cell-free HTRF kinase assay), JAK3
Details: catalytic domain, His-tag; ATP 3 μM, SRCtide 100 nM, reaction 30 min
Readings of IC50 for the listed molecules

MOLECULE: N#Cc1cc(Cl)c(C(=O)n2ccc3cnccc32)c(Cl)c1
IC50: < 500 nM

MOLECULE: CNCc1cc(Cl)c(C(=O)n2ccc3c(NC(=O)C4CC4)nccc32)c(Cl)c1
IC50: < 100 nM

MOLECULE: CN(CCO)C(=O)Nc1cc(Cl)c(C(=O)n2ccc3c(NC(=O)C4CC4)nccc32)c(Cl)c1
IC50: < 500 nM

MOLECULE: CCNC(=O)c1cc(Cl)c(C(=O)n2ccc3c(NC(=O)C4CC4)nccc32)c(Cl)c1
IC50: < 1000 nM

MOLECULE: CC(=O)Nc1nccc2c(C(=O)c3c(Cl)cc(C(=O)NCCN4CCCC4)cc3Cl)c[nH]c12
IC50: < 1000 nM

MOLECULE: O=C(Nc1nccc2c1ccn2C(=O)c1c(Cl)cc(CNCCN2CCNC2=O)cc1Cl)C1CC1
IC50: < 500 nM

MOLECULE: CC(C)NC(=O)c1cc(Cl)c(C(=O)n2ccc3c(NC(=O)C4CC4)nccc32)c(Cl)c1
IC50: < 500 nM

MOLECULE: N#Cc1cc(F)c(C(=O)c2c[nH]c3c(NC(=O)C4CC4)nccc23)c(F)c1
IC50: < 50 nM

MOLECULE: O=C(c1c(Cl)cc(-c2cncnc2)cc1Cl)c1c[nH]c2c(NC(=O)C3CC3)nccc12
IC50: < 100 nM

MOLECULE: CCOCCCNC(=O)c1cc(F)c(C(=O)c2c[nH]c3c(NC(=O)C4CC4)nccc23)c(F)c1
IC50: < 1000 nM

MOLECULE: O=C(Nc1cc2c(ccn2C(=O)c2c(Cl)cccc2Cl)cn1)C1CC1
IC50: < 50 nM

MOLECULE: CCNCc1cc(Cl)c(C(=O)c2c[nH]c3c(NC(=O)C4CC4)nccc23)c(Cl)c1
IC50: < 100 nM

MOLECULE: CNC(=O)c1cc(Cl)c(C(=O)c2c[nH]c3c(NC(=O)C4CC4)nccc23)c(Cl)c1
IC50: < 100 nM

MOLECULE: O=C(NCC1CCCNC1)c1cc(Cl)c(C(=O)n2ccc3c(NC(=O)C4CC4)nccc32)c(Cl)c1 (stereo not drawn)
IC50: < 100 nM

MOLECULE: O=C(Nc1cc(Cl)c(C(=O)n2ccc3c(NC(=O)C4CC4)nccc32)c(Cl)c1)NC1CC1
IC50: < 500 nM

* * *

Readings of IC50 for the listed compounds
Target: JAK1 (Homo sapiens, UniProt P23458)
Construct: JAK1 (aa 850-1154) and TYK2 (aa 871-1187) are expressed with an N-terminally fused GST-tag; GST (N); purchased Carna Bioscience, Inc; host or cells: baculovirus expression system
Sequence (P23458 850-1154): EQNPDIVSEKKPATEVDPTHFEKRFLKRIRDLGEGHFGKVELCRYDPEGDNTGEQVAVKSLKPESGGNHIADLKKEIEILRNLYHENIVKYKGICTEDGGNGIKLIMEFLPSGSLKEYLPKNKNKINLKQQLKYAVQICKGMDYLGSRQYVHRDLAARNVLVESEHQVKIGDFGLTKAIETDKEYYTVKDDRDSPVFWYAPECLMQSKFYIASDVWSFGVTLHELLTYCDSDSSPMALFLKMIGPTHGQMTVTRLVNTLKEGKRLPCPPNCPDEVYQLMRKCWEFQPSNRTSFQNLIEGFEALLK
Experiment: In vitro enzyme assay (cell-free HTRF kinase assay), JAK1
Type: biochemical
Conditions: catalytic domain aa 850-1154, GST-tag; ATP 60 μM, SRCtide 400 nM, reaction 120 min
MEASURED_ENDPOINT: IC50

COMPOUND: Cc1noc(C)c1-c1cc(Cl)c(C(=O)c2c[nH]c3c(NC(=O)C4CC4)nccc23)c(Cl)c1 [Compound No. 23]
MEASURED_ENDPOINT: IC50
RESULT: < 1000 nM
//
COMPOUND: CC(C)NC(=O)c1cc(Cl)c(C(=O)n2ccc3c(NC(=O)C4CC4)nccc32)c(Cl)c1 [Compound No. 107]
MEASURED_ENDPOINT: IC50
RESULT: < 500 nM
//
COMPOUND: CCNCc1cc(Cl)c(C(=O)c2c[nH]c3c(NC(=O)C4CC4)nccc23)c(Cl)c1 [Compound No. 67]
MEASURED_ENDPOINT: IC50
RESULT: < 100 nM
//
COMPOUND: CCNC(=O)Nc1cc(Cl)c(C(=O)n2ccc3c(NC(=O)C4CC4)nccc32)c(Cl)c1 [Compound No. 103]
MEASURED_ENDPOINT: IC50
RESULT: < 1000 nM
//
COMPOUND: O=C(NCc1ccccn1)c1cc(Cl)c(C(=O)n2ccc3c(NC(=O)C4CC4)nccc32)c(Cl)c1 [Compound No. 147]
MEASURED_ENDPOINT: IC50
RESULT: < 500 nM
//
COMPOUND: O=C(NCCN1CCCCC1)c1cc(Cl)c(C(=O)n2ccc3c(NC(=O)C4CC4)nccc32)c(Cl)c1 [Compound No. 150]
MEASURED_ENDPOINT: IC50
RESULT: < 500 nM
//
COMPOUND: O=C(NCCF)c1cc(F)c(C(=O)c2c[nH]c3c(NC(=O)C4CC4)nccc23)c(F)c1 [Compound No. 59]
MEASURED_ENDPOINT: IC50
RESULT: < 500 nM
//
COMPOUND: O=C(NCCCN1CCOCC1)c1cc(Cl)c(C(=O)c2c[nH]c3c(NC(=O)C4CC4)nccc23)c(Cl)c1 [Compound No. 31]
MEASURED_ENDPOINT: IC50
RESULT: < 500 nM
//
COMPOUND: Nc1cc(Cl)c(C(=O)c2c[nH]c3cnccc23)c(Cl)c1 [Compound No. 3]
MEASURED_ENDPOINT: IC50
RESULT: < 1000 nM
//
COMPOUND: N#Cc1cc(Cl)c(C(=O)n2ccc3cnccc32)c(Cl)c1 [Compound No. 95]
MEASURED_ENDPOINT: IC50
RESULT: < 1000 nM
//
COMPOUND: O=C(c1c(Cl)cc(CO)cc1Cl)c1c[nH]c2c(NC(=O)C3CC3)nccc12 [Compound No. 58]
MEASURED_ENDPOINT: IC50
RESULT: < 1000 nM
//
COMPOUND: O=C(NCC1CCCNC1)c1cc(Cl)c(C(=O)n2ccc3c(NC(=O)C4CC4)nccc32)c(Cl)c1 (centres unmarked) [Compound No. 171]
MEASURED_ENDPOINT: IC50
RESULT: < 500 nM
//
COMPOUND: O=C(c1c(Cl)cccc1Cl)c1c[nH]c2cnc(NC(=O)C3CC3)cc12 [Compound No. 18]
MEASURED_ENDPOINT: IC50
RESULT: < 1000 nM
//
COMPOUND: Cc1noc(C)c1-c1cc(Cl)c(C(=O)n2ccc3c(NC(=O)C4CC4)nccc32)c(Cl)c1 [Compound No. 87]
MEASURED_ENDPOINT: IC50
RESULT: < 500 nM
//
COMPOUND: O=C(NCCF)c1cc(Cl)c(C(=O)n2ccc3c(NC(=O)C4CC4)nccc32)c(Cl)c1 [Compound No. 154]
MEASURED_ENDPOINT: IC50
RESULT: < 1000 nM
//
COMPOUND: COCCNC(=O)c1cc(Cl)c(C(=O)c2c[nH]c3c(NC(=O)C4CC4)nccc23)c(Cl)c1 [Compound No. 16]
MEASURED_ENDPOINT: IC50
RESULT: < 1000 nM
//
COMPOUND: O=C(NCCN1CCCC1)c1cc(Cl)c(C(=O)n2ccc3c(NC(=O)C4CC4)nccc32)c(Cl)c1 [Compound No. 148]
MEASURED_ENDPOINT: IC50
RESULT: < 500 nM

* * *

Biological target: JAK1 (Homo sapiens)
Construct: JAK1 (aa 850-1154) and TYK2 (aa 871-1187) are expressed with an N-terminally fused GST-tag; GST (N)
Experiment: In vitro enzyme assay (cell-free HTRF kinase assay), JAK1
Details: catalytic domain aa 850-1154, GST-tag; ATP 60 μM, SRCtide 400 nM, reaction 120 min
pIC50: −log10 of the molar value.
Readings of pIC50 for the listed molecules

MOLECULE: O=C(c1c(Cl)cc(-c2cncnc2)cc1Cl)c1c[nH]c2c(NC(=O)C3CC3)nccc12 [Compound No. 47]
pIC50: > 6.00
//
MOLECULE: O=C(Nc1cc(Cl)c(C(=O)n2ccc3c(NC(=O)C4CC4)nccc32)c(Cl)c1)NC1CC1 [Compound No. 113]
pIC50: > 6.00
//
MOLECULE: N#Cc1cc(Cl)c(C(=O)c2c[nH]c3cnccc23)c(Cl)c1 [Compound No. 6]
pIC50: > 6.30
//
MOLECULE: O=C(Nc1nccc2c1ccn2C(=O)c1c(Cl)cc(CNCCCO)cc1Cl)C1CC1 [Compound No. 167]
pIC50: > 6.30
//
MOLECULE: O=C(NCCCN1CCOCC1)c1cc(Cl)c(C(=O)n2ccc3c(NC(=O)C4CC4)nccc32)c(Cl)c1 [Compound No. 149]
pIC50: > 6.30
//
MOLECULE: CCNCc1cc(Cl)c(C(=O)n2ccc3c(NC(=O)C4CC4)nccc32)c(Cl)c1 [Compound No. 164]
pIC50: > 6.30
//
MOLECULE: CNCc1cc(Cl)c(C(=O)n2ccc3c(NC(=O)C4CC4)nccc32)c(Cl)c1 [Compound No. 163]
pIC50: > 6.30
//
MOLECULE: CCNC(=O)c1cc(Cl)c(C(=O)n2ccc3cnc(NC(=O)C4CC4)cc32)c(Cl)c1 [Compound No. 130]
pIC50: > 6.30
//
MOLECULE: CCNC(=O)c1cc(F)c(C(=O)c2c[nH]c3c(NC(=O)C4CC4)nccc23)c(F)c1 [Compound No. 60]
pIC50: > 6.30
//
MOLECULE: O=C(NCCCO)c1cc(Cl)c(C(=O)c2c[nH]c3c(NC(=O)C4CC4)nccc23)c(Cl)c1 [Compound No. 30]
pIC50: > 6.30
//
MOLECULE: CC(=O)Nc1nccc2c(C(=O)c3c(Cl)cc(C(=O)NCCN4CCCC4)cc3Cl)c[nH]c12 [Compound No. 44]
pIC50: > 6.00
//
MOLECULE: COC(=O)CNC(=O)c1cc(Cl)c(C(=O)c2c[nH]c3c(NC(=O)C4CC4)nccc23)c(Cl)c1 [Compound No. 35]
pIC50: > 6.30
//
MOLECULE: O=C(Nc1cc2c(ccn2C(=O)c2c(Cl)cccc2Cl)cn1)C1CC1 [Compound No. 120]
pIC50: > 7.00
//
MOLECULE: CCOC(=O)[C@H](C)NC(=O)c1cc(Cl)c(C(=O)n2ccc3c(NC(=O)C4CC4)nccc32)c(Cl)c1 [Compound No. 141]
pIC50: > 6.00
//
MOLECULE: CN(C)CCNC(=O)c1cc(Cl)c(C(=O)c2c[nH]c3c(NC(=O)C4CC4)nccc23)c(Cl)c1 [Compound No. 33]
pIC50: > 7.00
